species on record: Rattus norvegicus; experiment: DrugMatrix - Regimen: Daily Repeat; assay type: toxicity, organism-based, Sprague-Dawley; set-up: regimen Daily Repeat, gender Male, age 6-8 weeks; settings: in vivo, po, 0 mg/kg, 120 h, tissue Plasma, route oral GAVAGE, dose level Control, time 5 day, […]
test.readout: LACTATE DEHYDROGENASE (u/L)
Kindly provide the numeric value in u/L only, without the unit symbol.

A selection of reference data follows.
- compound: "CC(C)Cc1ccc(CC(=O)O)cc1"
  LACTATE DEHYDROGENASE, u/L: 324
- compound: "CC[C@H](C)C(=O)O[C@H]1C[C@@H](C)C=C2C=C[C@H](C)[C@H](CC[C@@H]3C[C@@H](O)CC(=O)O3)[C@H]21"
  LACTATE DEHYDROGENASE, u/L: 92.33

Looking up C#C[C@]1(O)CC[C@H]2[C@@H]3CCc4cc(O)ccc4[C@H]3CC[C@@]21C , I see its LACTATE DEHYDROGENASE listed as 290.67

Given item OCCN1CCN(CCCN2c3ccccc3Sc3ccc(C(F)(F)F)cc32)CC1 , the value recorded as its LACTATE DEHYDROGENASE is 91.5

What the record says about CCn1cc(C(=O)O)c(=O)c2cc(F)c(N3CCNCC3)nc21 : LACTATE DEHYDROGENASE is 290.67

Per the record, COc1ncnc(NS(=O)(=O)c2ccc(N)cc2)c1OC has LACTATE DEHYDROGENASE of 124

Recorded LACTATE DEHYDROGENASE (compound NC[C@@H]1O[C@H](O[C@H]2[C@@H](O)[C@H](O[C@@H]3[C@@H](O)[C@H](N)C[C@H](N)[C@H]3O[C@H]3O[C@H](CN)[C@@H](O)[C@H](O)[C@H]3N)O[C@@H]2CO)[C@H](N)[C@@H](O)[C@@H]1O ): 83.5

Short answer for CN(CCOc1ccc(CC2SC(=O)NC2=O)cc1)c1ccccn1 (centres undefined) : LACTATE DEHYDROGENASE was 88.5

Reported LACTATE DEHYDROGENASE of CC(=O)Nc1nnc(S(N)(=O)=O)s1 [ACETAZOLAMIDE] : 124
